These measurements were taken from patent US20250223358A1.

This listing pairs binders with measured EC50_Fold change (Jurkat-NFAT-luciferase activation, normalized to ch40-C12-C10-E9).
Molecular target: human CD3 (human, UniProt P07766 23-207; P04234 22-171; P09693 23-182)
Sequence (P07766 23-207, chain 1 of 3): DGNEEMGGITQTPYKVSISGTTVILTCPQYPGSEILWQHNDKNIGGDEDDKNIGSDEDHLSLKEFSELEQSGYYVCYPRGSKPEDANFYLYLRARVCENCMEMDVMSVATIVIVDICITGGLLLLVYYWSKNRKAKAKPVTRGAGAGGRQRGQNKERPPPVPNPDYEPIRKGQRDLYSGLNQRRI
Sequence (P04234 22-171, chain 2 of 3): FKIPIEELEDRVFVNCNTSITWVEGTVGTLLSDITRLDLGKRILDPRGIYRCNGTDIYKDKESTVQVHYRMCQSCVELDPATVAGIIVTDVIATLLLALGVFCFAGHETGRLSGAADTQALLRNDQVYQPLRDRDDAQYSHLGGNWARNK
Sequence (P09693 23-182, chain 3 of 3): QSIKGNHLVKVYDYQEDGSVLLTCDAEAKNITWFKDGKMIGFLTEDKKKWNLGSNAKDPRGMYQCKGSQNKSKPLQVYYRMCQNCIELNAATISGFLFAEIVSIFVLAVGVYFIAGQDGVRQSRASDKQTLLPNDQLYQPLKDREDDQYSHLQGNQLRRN
Assay: cell-based or functional assay
quantity-name: EC50_Fold change (Jurkat-NFAT-luciferase activation, normalized to ch40-C12-C10-E9) (fold)

[
  {
    "binder": "hu40E9-L4H7 (antibody, V domains shown) VH: EVQLVQSGAEVKKPGSSVKVSCKASGYTFSSYVIHWVRQAPGQGLEWMGYINPGNGVIKYNEKFKGRVTLTSDKSTSTAYMELSSLRSEDTAVYYCARDSYSSYDGFAYWGQGTLVTVSS VL: EIVLTQSPDFQSVTPKEKVTITCSASSSVSYMHWYQQKPDQSPKRLIYDTSKLASGVPSRFSGSGSGTDFTLTINSLEAEDAATYYCQQWRSRPPTFGGGTKVEIK",
    "measured-result": 1.95
  },
  {
    "binder": "hu40E9-L2H8 (antibody, V domains shown) VH: EVQLVQSGAEVKKPGSSVKVSCKASGYTFSSYVIHWVRQAPGQGLEWMGYINPGNDVIKYNEKFKGRVTLTSDKSTSTAYMELSSLRSEDTAVYYCARESYSSYDGFAYWGQGTLVTVSS VL: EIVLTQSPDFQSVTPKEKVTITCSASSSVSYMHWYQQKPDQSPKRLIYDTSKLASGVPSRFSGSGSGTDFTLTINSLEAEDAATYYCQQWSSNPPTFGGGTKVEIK",
    "measured-result": 18.4
  }
]
